Where do the numbers come from? From patent US20240034987A1.

System: bovine satellite cells (BSCs)
Assay: Short-term growth analysis (3 and 4 days, dsDNA quantitation, brightfield imaging)
Assay type: cell-based
Settings: supplement in B8, range of concentrations, growth over four days
REPORTED_PROPERTY: BSC proliferation compared to B8 media alone

MOLECULE	REPORTED_VALUE
CCCCCCCC/C=C\CCCCCCCC(=O)O [oleic acid, reference compound]	significantly improved
CCCCC/C=C\C/C=C\CCCCCCCC(=O)O [linoleic acid, reference compound]	significantly improved
COc1cc(/C=C/C(=O)CC(=O)/C=C/c2ccc(O)c(OC)c2)ccc1O [curcumin, reference compound]	significantly improved
